target: T1, human PD-1 extracellular domain fused with human Fc tag (hPD-1-hFc) (human); test: ELISA on coated PD1-hFc
T1 construct: also called human PD-1-hFc
T1 sequence (chain, as listed by the source limits assumed): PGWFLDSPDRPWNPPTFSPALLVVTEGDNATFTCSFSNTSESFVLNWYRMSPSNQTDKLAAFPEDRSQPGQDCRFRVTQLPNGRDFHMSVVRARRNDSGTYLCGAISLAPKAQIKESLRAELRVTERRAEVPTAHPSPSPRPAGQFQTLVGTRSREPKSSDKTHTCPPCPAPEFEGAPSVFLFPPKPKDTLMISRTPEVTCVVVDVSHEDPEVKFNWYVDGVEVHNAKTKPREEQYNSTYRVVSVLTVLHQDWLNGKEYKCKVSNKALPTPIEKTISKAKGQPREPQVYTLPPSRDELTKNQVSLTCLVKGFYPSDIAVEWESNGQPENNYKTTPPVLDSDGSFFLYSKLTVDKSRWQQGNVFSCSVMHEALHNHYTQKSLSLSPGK
Recorded EC50 values for a group of binders are listed next.
// note: answer is a bare numeric in µg/mL

binder: 5A8 murine anti-PD-1 antibody (antibody, V domains shown, Purified hybridoma antibody; also called 5A8-mIgG1) VH: QVQLQQSGDELVRPGTSVKMSCKAAGYTFTNNWIGWVKQRPGHGLEWIGDFYPGGGYTNYNEKFKGKATLTADTSSSTAYMQLSSLTSEDSAIYYCARGYGTNYWYFDVWGAGTTVTVSS VL: NIVMTQTPKILFISAGDRVTITCKASQSVSNDVAWYQQKPGQSPKLLIYYAFTRYIGVPDRFTGSGYGTDFTFTISTVQAEDLAVYFCQQDYSSPYTFGGGTKLEIKR
test_value: 0.0112

# EC50 lookup, item 6E1 murine anti-PD-1 antibody (antibody, V domains shown, Purified hybridoma antibody; also called 6E1-mIgG1) VH: EVKLVESGGGLVKPGGSLKLSCAASGFTFSSYGMSWVRQTPEKRLEWVATISGGGRDTYYLDSVKGRFTISRDNAKNNLYLQMSSLRSEDTALYYCVRQYYDDWFAYWGQGTLVSNSA VL: DIVLTQTPATLSVTPGDSVSLSCRASQSLSNNLHWYQQKSHESPRLLIKYASQSISGIPSRFSGSGSGTDFTLSINSVETEDFGMYFCQQSNSWPLTFGAGTKLEMKR
0.0157

// same read-out, input: 10D1 murine anti-PD-1 antibody (antibody, V domains shown, Purified hybridoma antibody; also called 10D1-mIgG1) VH: EVKLVESGGGLVKPGGSLKLSCAASGFTFSSYGMSWLRQTPEKRLEWVATMSGGGRDIYYPDSMKGRFTISRDNAKNNLYLQMSSLRSEDTALYYCARQYYDDWFAYWGQGTLVTVSA VL: DIVLTQTPATLSVTPGDSVSLSCRASQSISNNLHWYQQKSHESPRLLIKYASQSISGIPSRFSGSGSGTDFTLNINSVETEDFGMYFCQQSNSWPLTFGAGTKLELKR
0.0172

Where do these numbers come from? They come from patent US20170267762A1.
